test.summary: chemical genetic growth profiling, strain panel (AID 1159580);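 also: tested at 20 µM; growth read once vehicle control cultures reached saturation at 30 °C; 1 = growth at the plate median or of vehicle wells; lower values mean less growth of the strain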
cond: S. cerevisiae deletion strains, growth OD, locus YER015W, strain faa2, hits give low values
The whole screen tested about 5,500 compounds, of which about 2,000 (36%) were called active. About 18% were inconclusive and are not listed. Some of the results follow.
Reported values of normalized growth for individual entries
The answer should be written as a number, with no unit following it.

Consider the following illustrative entries.
compound="NCC1CCC(C(=O)O)CC1 (stereo unspecified)" recorded_value=0.987
compound=CCOC(=O)c1c(C)cc(O)c(C=O)c1O recorded_value=0.516
compound=CCOC(=O)c1c(C)c(Cl)c(O)c(Cl)c1O recorded_value=0.652
compound=COc1ccc2c(c1)OCc1c-2oc2cc(OC)ccc12 recorded_value=0.9

Request the reported normalized growth associated with CC(=O)O[C@@H]1C[C@@]2(C)C(CC[C@@H]2C(C)=O)C2CCC3=CC(=O)CC[C@]3(C)C21 (stereo partly specified)
1.01

Request the reported normalized growth associated with ClC1=C(Cl)C2(Cl)C3C4C=CC(C4)C3C1(Cl)C2(Cl)Cl (stereo unspecified)
1

Request the reported normalized growth associated with "CCOC(=O)[C@H](CCc1ccccc1)N[C@H]1CCc2ccccc2N(CC(=O)O)C1=O"
0.985

Request the reported normalized growth associated with C[C@]12CCC(=O)C=C1CCC1C2CC[C@@]2(C)C1CC[C@@H]2O (stereo partly specified)
0.995

Request the reported normalized growth associated with "Cc1cc(O)c(C=O)c(O)c1C(=O)O"
1

Request the reported normalized growth associated with CC1=C(CC(=O)O)c2cc(F)ccc2/C1=C\c1ccc(S(C)=O)cc1 (stereo unspecified)
1.01

Request the reported normalized growth associated with C[C@H]1CC2C([C@@H](O)C[C@@]3(C)C2CC[C@]3(O)C(=O)CO)[C@@]2(C)C=CC(=O)C=C12 (stereo partly specified)
1.01

====

test.summary: chemical genetic growth profiling, strain panel (AID 1159580);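 also: tested at 20 µM; growth read once vehicle control cultures reached saturation at 30 °C; 1 = growth at the plate median or of vehicle wells; lower values mean less growth of the strain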
cond: S. cerevisiae deletion strains, growth OD, locus YMR263W, strain SAP30, hits give low values
Hit rate of the full screen: of about 5,500 compounds, about 2,000 (36%) were called active. Not shown: some 18% with an inconclusive outcome. The list shows a part of the results.
Reported values of normalized growth for individual entries
The answer should be written as a number, with no unit following it.

Consider the following illustrative entries.
compound="CCCCCCCCNC(C)C(O)c1ccc(SC(C)C)cc1 (stereo not given)" recorded_endpoint="normalized growth" recorded_value=0.0563
compound=O=C(O)c1cc2ccccc2c(Cc2c(O)c(C(=O)O)cc3ccccc23)c1O recorded_endpoint="normalized growth" recorded_value=0.999
compound=CCOC(=O)c1c(C)cc(O)c(C=O)c1O recorded_endpoint="normalized growth" recorded_value=0.353
compound=Cc1cc(O)c(C)c(O)c1C(=O)O recorded_endpoint="normalized growth" recorded_value=1.02
compound=COc1ccc(OC)c(S(=O)(=O)Oc2ccc(C#N)cc2)c1 recorded_endpoint="normalized growth" recorded_value=0.992

Request the reported normalized growth associated with "COc1ccc2c3c1O[C@H]1C[C@@H](O)C=C[C@@]31CCN(C)C2"
0.991

Request the reported normalized growth associated with CC(N)CCCC(C)(C)O (stereo not given)
0.984

Request the reported normalized growth associated with "CC(=O)OC(C)(C)[C@@H]1Cc2cc3ccc(=O)oc3cc2O1"
0.997

Request the reported normalized growth associated with CC(CCc1ccccc1)NC(C)C(O)c1ccc(O)cc1 (stereo not given)
1.01

Request the reported normalized growth associated with "O=C(O)c1cc2ccccc2[nH]1"
1.01

Request the reported normalized growth associated with COc1cc2c(cc1OC)C1C(=O)c3c(O)cc4c(c3OC1CO2)C=CC(C)(C)O4 (stereo not given)
1.01

Request the reported normalized growth associated with "CCCN(CCC)CCc1ccc(O)c(O)c1"
0.995

Request the reported normalized growth associated with O=C1O/C(=C/Br)CCC1c1cccc2ccccc12 (stereo not given)
0.989

Request the reported normalized growth associated with "C[C@@H](NCCc1ccc(O)cc1)[C@@H](O)c1ccc(O)cc1"
0.986

Request the reported normalized growth associated with CNCC(O)c1ccc(O)c(O)c1 (stereo not given)
1.01

Request the reported normalized growth associated with "c1ccc(N=Nc2ccc(Nc3ccccc3)cc2)cc1"
0.9

Request the reported normalized growth associated with CN1CCCN=C1COC(=O)C(O)(c1ccccc1)C1CCCCC1 (stereo not given)
1.01

Request the reported normalized growth associated with CC(CCc1ccc(O)cc1)NCCc1ccc(O)c(O)c1 (stereo not given)
1.01

Request the reported normalized growth associated with "Cc1cc(O)c(C=O)c(O)c1C(=O)O"
1.06

Request the reported normalized growth associated with "CCOC(=O)c1[nH]c(Cc2[nH]c(C(=O)OCC)c(C)c2C)c(C)c1C"
1.02

Request the reported normalized growth associated with "CSc1nnnn1-c1c(C)cccc1C"
1
